# procedure text: recombinant barcode read abundance after kanamycin selection (control-corrected) (log10(CPM+1)); higher = more efficient recombination; sequences stand for … in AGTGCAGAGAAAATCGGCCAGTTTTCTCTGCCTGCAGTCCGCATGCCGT…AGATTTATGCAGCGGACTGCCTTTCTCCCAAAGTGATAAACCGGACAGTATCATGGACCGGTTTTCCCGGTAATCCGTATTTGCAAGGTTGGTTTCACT; site = the 11-nt target
Quick rule for you: recombinant barcode read abundance (log10) at 0.4 or higher means true (1), lower means false (0).

These recorded examples may help you get a feel for the data.
- sequence text: "ATCTTGTCTTGGGTTCTAACCTGTTGCCT (site ATCTTGTCTAG)"
  group label: "true (1)"
- sequence text: "GATTGGACTTGGGTTCTAACCTGTTGCTT (site AATTGGACTAA)"
  group label: "false (0)"
- sequence text: "GCCCGAACTTGGGTTCTAACCTGTTGCCT (site GCGCGAACTAG)"
  group label: "false (0)"
- sequence text: "GGTCACCCTTGGGTTCTAACCTGTTGCGG (site GGTGACCCTCC)"
  group label: "false (0)"
- sequence text: "GACATTCCTTGGGTTCTAACCTGTTGCCT (site AACATTCCTAG)"
  group label: "false (0)"
- sequence text: "GAAAGCTCTTGGGTTCTAACCTGTTGCGT (site GAAAGCTCTAC)"
  group label: "true (1)"
- sequence text: "CCGGGTACTTGGGTTCTAACCTGTTGCCG (site CCGGGTACTCG)"
  group label: "true (1)"
- sequence text: "GATTCTTCTTGGGTTCTAACCTGTTGCCT (site GGTTCTTCTAG)"
  group label: "false (0)"
- sequence text: "ATAGGTACTTGGGTTCTAACCTGTTGCTT (site ATAGGTACTAA)"
  group label: "true (1)"

Note: attention shifts to another entry.
### Prompt Check if recombinant barcode read abundance (log10) >= 0.4 (inclusive). Item: AGGCTGGCTTGGGTTCTAACCTGTTGCCT (site AGGCTGACTAG)
### Response true (1)

====

# procedure text: recombinant barcode read abundance after kanamycin selection (control-corrected) (log10(CPM+1)); higher = more efficient recombination; sequences stand for … in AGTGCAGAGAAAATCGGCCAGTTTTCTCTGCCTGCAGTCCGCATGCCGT…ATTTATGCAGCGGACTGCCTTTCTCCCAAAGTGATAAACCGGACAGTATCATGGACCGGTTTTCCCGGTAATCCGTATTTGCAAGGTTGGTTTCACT; site = the 11-nt target
Please respond with reported recombinant barcode read abundance (log10) for every item in the list.
One number for each entry.

For orientation, consider the following solved cases.
- sequence text: "GGACACCCTTGGGTTCTAACCTGTTGCCTCT [GGACACCCTAG_LTGcore_CT_RTGcore_AG] (site GGACACCCTAG) (LTG core: CT, RTG core: AG)"
  readout value: 0.545
- sequence text: "GGCTCCCCTTGGGTTCTAACCTGTTGCGGCC [GGCTCCCCTCC_LTGcore_CT_RTGcore_GG] (site GGCTCCCCTCC) (LTG core: CT, RTG core: GG)"
  readout value: 0.131
- sequence text: "AGTCTTACTTGGGTTCTAACCTGTTGCCACT [AGTCTTACTTG_LTGcore_CT_RTGcore_AG] (site AGTCTTACTTG) (LTG core: CT, RTG core: AG)"
  readout value: 0.0729
- sequence text: "GAGCCCACTTGGGTTCTAACCTGTTGCCTTC [GAGCCCACTAG_LTGcore_CT_RTGcore_GA] (site GAGCCCACTAG) (LTG core: CT, RTG core: GA)"
  readout value: 0.518
- sequence text: "AGGCGGGGATGGGTTCTAACCTGTTGCGGAG [AGGCGGGCTCC_LTGcore_GA_RTGcore_CT] (site AGGCGGGCTCC) (LTG core: GA, RTG core: CT)"
  readout value: 0.555
- sequence text: "GGGCGTGATTGGGTTCTAACCTGTTGCCTAT [GGGCGTGCTAG_LTGcore_AT_RTGcore_AT] (site GGGCGTGCTAG) (LTG core: AT, RTG core: AT)"
  readout value: 0.0806
- sequence text: "AAACAGTGGTGGGTTCTAACCTGTTGCCTCC [AAACAGTCTAG_LTGcore_GG_RTGcore_GG] (site AAACAGTCTAG) (LTG core: GG, RTG core: GG)"
  readout value: 0.0531
- sequence text: "TTATAAATTTGGGTTCTAACCTGTTGCCTAG [TTATAAACTAG_LTGcore_TT_RTGcore_CT] (site TTATAAACTAG) (LTG core: TT, RTG core: CT)"
  readout value: 0.0473

Go through the items and report each one's recombinant barcode read abundance (log10).
1. AGGCGGTACTGGGTTCTAACCTGTTGCTTGT [AGGCGGTCTAA_LTGcore_AC_RTGcore_AC] (site AGGCGGTCTAA) (LTG core: AC, RTG core: AC)
2. GGTGCCCCTTGGGTTCTAACCTGTTGCCGTG [GGTGCCCCTCG_LTGcore_CT_RTGcore_CA] (site GGTGCCCCTCG) (LTG core: CT, RTG core: CA)
3. CATATTATATGGGTTCTAACCTGTTGCCTAG [CATATTACTAG_LTGcore_TA_RTGcore_CT] (site CATATTACTAG) (LTG core: TA, RTG core: CT)

### Response
0.166
0.126
0.0615
